# subject_of_test: Sigma intracellular receptor 2 (Rattus norvegicus, UniProt Q5U3Y7)
# Sequence (Q5U3Y7 whole entry): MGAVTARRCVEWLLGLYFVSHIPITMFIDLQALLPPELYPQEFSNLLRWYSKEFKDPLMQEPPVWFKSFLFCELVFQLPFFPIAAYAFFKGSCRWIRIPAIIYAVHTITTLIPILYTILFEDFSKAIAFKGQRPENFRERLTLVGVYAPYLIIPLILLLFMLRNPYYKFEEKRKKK
# protocol_description: Displacement of [3H]RHM-1 from sigma 2 receptor in Wistar Han rat liver membrane assessed as inhibition constant by competitive binding assay
# Format: cell membranes
property_measured: Ki (µM)

{"molecule": "COc1ccc(C)cc1NC(=O)OC1C[C@H]2CCC[C@@H](C1)N2CCCCCCCCCCS(=O)(=O)c1cccc2c(N(C)C)cccc12 (stereo partly specified)", "endpoint_unit": "µM", "result_number": 0.014}

====

# subject_of_test: Sigma intracellular receptor 2 (Homo sapiens, UniProt Q5BJF2)
# Sequence (Q5BJF2 whole entry): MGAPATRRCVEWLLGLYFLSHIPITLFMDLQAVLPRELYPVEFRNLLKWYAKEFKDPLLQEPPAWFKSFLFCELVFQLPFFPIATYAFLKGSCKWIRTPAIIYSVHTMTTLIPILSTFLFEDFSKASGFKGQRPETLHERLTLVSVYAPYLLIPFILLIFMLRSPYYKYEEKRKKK
# protocol_description: Binding affinity to sigma 2 receptor (unknown origin) assessed as inhibition constant
pKi: −log10 of the molar value.
property_measured: pKi

{"compound": "CC1CCN(CCCCc2cccc3cc(OCCCCCCN4C(=O)c5ccc(N(C)C)cc5C4=O)ccc23)CC1", "property_measured": "pKi", "result_number": 7.75}
{"compound": "CN(C)c1ccc2c(c1)C(=O)N(Oc1cccc3c1CCCC3CCCN1CCN(C3CCCCC3)CC1)C2=O (configuration not stated)", "property_measured": "pKi", "result_number": 8.16}

====

# subject_of_test: Sigma non-opioid intracellular receptor 1 (Cavia porcellus)
# Sequence (Q60492 whole entry): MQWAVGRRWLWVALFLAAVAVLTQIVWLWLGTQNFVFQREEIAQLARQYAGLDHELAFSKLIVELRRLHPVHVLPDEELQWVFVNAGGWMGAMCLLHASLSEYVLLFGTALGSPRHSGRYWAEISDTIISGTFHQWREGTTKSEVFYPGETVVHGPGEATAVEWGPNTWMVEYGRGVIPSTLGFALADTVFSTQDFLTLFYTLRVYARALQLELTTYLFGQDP
# protocol_description: Displacement of [3H](+)-pentazocine from sigma 1 receptor in guinea pig brain membranes assessed as inhibition constant by competitive binding assay
# Type: cell membranes, Membrane

{"structure": "COc1cc2c(cc1OC)CN(CCCN1CCc3c(OCCCCCCN4C(=O)c5ccc(N(C)C)cc5C4=O)cccc3C1=O)CC2", "Ki": "> 5 µM"}

====

# subject_of_test: Sigma non-opioid intracellular receptor 1 (Homo sapiens, UniProt Q99720)
# Sequence (Q99720 whole entry): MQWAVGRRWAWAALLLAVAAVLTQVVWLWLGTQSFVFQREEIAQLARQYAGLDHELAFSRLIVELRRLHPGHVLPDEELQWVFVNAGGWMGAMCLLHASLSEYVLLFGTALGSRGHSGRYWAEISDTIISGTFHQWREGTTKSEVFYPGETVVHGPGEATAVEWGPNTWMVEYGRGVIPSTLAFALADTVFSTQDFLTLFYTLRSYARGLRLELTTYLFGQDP
# protocol_description: Binding affinity to sigma 1 receptor (unknown origin) assessed as inhibition constant
property_measured: Ki (nM)

{"structure": "CC1CCN(CCCCc2cccc3cc(OCCCCCCN4C(=O)c5ccc(N(C)C)cc5C4=O)ccc23)CC1", "property_measured": "Ki", "endpoint_unit": "nM", "result_number": 0.03}
